Entry source: ChEMBL document CHEMBL3751830

Test details: Intrinsic clearance in human liver microsomes at 1 uM up to 30 mins by LC/MS/MS analysis
Format: ADME
Run parameters: read-out: CLH
Recorded microsomal CLint at 1 µM, one value per entry.
State just the number; it will be interpreted in µL/min/mg.

For `O=C(O)CCNc1nc(-c2nccs2)cc(N2CCc3ccccc3CC2)n1` , what is its reported microsomal CLint at 1 µM?
5

Others:
For `O=C(O)CCNc1cc(N2CCc3ccccc3CC2)nc(-c2ccccn2)n1` , what is its reported microsomal CLint at 1 µM?
3

For `O=C(O)CCNc1nc(N2CCc3ccccc3CC2)cc(-n2nccn2)n1` , what is its reported microsomal CLint at 1 µM?
1

For `O=C(O)CCNc1nc(N2CCc3ccccc3CC2)cc(-n2cc3ccccc3n2)n1` , what is its reported microsomal CLint at 1 µM?
5

----------
Measured target: CYP2D6 (Homo sapiens)
Sequence (P10635 whole entry): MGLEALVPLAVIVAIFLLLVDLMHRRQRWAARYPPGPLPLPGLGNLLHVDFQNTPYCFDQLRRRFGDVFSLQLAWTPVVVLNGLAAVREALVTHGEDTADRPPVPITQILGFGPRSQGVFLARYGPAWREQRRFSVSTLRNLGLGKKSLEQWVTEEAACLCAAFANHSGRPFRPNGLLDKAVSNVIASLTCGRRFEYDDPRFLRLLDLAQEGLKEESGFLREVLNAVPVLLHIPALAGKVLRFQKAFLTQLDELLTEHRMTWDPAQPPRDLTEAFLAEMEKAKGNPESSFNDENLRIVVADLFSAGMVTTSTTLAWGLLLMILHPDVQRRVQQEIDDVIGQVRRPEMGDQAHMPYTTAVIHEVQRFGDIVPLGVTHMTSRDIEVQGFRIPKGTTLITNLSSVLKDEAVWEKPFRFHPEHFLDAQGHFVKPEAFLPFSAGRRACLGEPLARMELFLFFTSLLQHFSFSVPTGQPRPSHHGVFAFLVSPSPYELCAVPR
Test details: Inhibition of CYP2D6 in human liver microsomes at 10 uM after 20 mins
Assay type: ADME
Property: inhibition at 20 min, 10 µM

Study these solved cases before continuing.
For `O=C(O)CCNc1nc(N2CCc3ccccc3CC2)cc(-n2nccn2)n1` , what is its reported inhibition at 20 min, 10 µM?
6%

For `O=C(O)CCNc1nc(-c2nccs2)cc(N2CCc3ccccc3CC2)n1` , what is its reported inhibition at 20 min, 10 µM?
8%

For `O=C(O)CCNc1nc(N2CCc3ccccc3CC2)cc(-n2cc3ccccc3n2)n1` , what is its reported inhibition at 20 min, 10 µM?
0%

For `O=C(O)CCNc1nc(N2CCc3ccccc3CC2)cc(-n2cccn2)n1` , what is its reported inhibition at 20 min, 10 µM?
5%

For `O=C(O)CCNc1nc(N2CCc3ccccc3CC2)cc(-n2ccnn2)n1` , what is its reported inhibition at 20 min, 10 µM?
6%

Here's the next entry for you.
For `O=C(O)CCNc1cc(N2CCc3ccccc3CC2)nc(-c2ccccn2)n1` , what is its reported inhibition at 20 min, 10 µM?
20%

----------
Measured target: Lysine-specific demethylase 6B (Homo sapiens)
Sequence (O15054 whole entry): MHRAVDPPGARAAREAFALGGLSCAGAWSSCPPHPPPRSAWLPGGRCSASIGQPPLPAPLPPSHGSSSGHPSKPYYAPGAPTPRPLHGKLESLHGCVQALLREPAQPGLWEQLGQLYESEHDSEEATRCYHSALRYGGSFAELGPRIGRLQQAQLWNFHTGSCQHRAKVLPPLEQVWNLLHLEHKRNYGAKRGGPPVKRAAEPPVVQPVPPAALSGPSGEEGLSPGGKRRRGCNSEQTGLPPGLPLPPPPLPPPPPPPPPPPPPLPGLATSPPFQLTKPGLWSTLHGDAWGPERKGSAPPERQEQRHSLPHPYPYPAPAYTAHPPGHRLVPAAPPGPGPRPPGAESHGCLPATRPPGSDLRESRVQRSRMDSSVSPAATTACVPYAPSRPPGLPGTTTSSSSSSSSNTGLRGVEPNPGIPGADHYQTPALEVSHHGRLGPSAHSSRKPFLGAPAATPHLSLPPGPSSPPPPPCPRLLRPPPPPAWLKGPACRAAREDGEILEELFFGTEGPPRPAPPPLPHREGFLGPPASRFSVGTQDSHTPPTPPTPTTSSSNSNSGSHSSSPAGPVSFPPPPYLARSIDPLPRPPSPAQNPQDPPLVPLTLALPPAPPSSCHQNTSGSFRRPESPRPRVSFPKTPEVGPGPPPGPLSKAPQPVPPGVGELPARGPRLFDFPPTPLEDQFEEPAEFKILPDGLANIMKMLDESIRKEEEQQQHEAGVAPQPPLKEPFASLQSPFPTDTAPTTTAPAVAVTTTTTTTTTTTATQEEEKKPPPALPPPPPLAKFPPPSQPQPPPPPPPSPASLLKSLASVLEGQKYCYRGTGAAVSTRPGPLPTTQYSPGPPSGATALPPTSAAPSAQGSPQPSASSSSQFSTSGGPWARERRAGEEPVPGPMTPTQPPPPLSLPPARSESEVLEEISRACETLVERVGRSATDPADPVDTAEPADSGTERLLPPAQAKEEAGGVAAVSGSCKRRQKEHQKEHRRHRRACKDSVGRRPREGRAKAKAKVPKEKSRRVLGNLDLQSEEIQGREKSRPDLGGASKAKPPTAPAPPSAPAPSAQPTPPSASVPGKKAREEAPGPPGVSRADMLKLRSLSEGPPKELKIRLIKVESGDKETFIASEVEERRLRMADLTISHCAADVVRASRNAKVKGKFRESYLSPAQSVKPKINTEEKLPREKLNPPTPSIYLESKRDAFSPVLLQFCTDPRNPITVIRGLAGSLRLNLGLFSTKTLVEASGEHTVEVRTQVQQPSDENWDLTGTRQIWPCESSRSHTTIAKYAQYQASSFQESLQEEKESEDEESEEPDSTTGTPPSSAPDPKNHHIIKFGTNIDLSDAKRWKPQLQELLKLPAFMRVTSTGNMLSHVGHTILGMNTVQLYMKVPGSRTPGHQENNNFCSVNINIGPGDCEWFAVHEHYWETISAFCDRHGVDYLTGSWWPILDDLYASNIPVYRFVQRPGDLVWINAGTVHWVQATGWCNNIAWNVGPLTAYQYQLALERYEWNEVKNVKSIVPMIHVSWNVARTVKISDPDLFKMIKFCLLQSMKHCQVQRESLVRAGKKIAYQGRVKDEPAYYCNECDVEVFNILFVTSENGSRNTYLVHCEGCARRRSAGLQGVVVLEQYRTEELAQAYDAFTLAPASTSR
pIC50: −log10 of the molar value.
I would appreciate it if you labelled entries Satisfied when pIC50 is 6 or higher, otherwise Not satisfied.

Form field: pIC50 at least 6? Entry: `O=C(O)CCNc1nc(N2CCN(c3ccc(F)cc3)CC2)cc(-n2nccn2)n1`
Not satisfied

Form field: pIC50 at least 6? Entry: `COc1ccccc1N1CCN(c2cc(-n3nccn3)nc(NCCC(=O)O)n2)CC1`
Not satisfied

Form field: pIC50 at least 6? Entry: `O=C(O)CCNc1nc(N2CCc3ccccc3CC2)cc(-n2cccn2)n1`
Satisfied

Others:
Form field: pIC50 at least 6? Entry: `O=C(O)CCNc1nc(N2CCc3ccccc3CC2)cc(-n2nccn2)n1`
Satisfied

Form field: pIC50 at least 6? Entry: `O=C(O)CCNc1nc(N2CCc3ccccc3C2)cc(-n2cccn2)n1`
Satisfied

Form field: pIC50 at least 6? Entry: `O=C(O)CCNc1nc(N2CCN(c3ccc(F)cc3)CC2)cc(-n2cccn2)n1`
Satisfied

Form field: pIC50 at least 6? Entry: `O=C(O)CCNc1nc(-c2nccs2)cc(N2CCN(c3ccc(F)cc3)CC2)n1`
Satisfied

Form field: pIC50 at least 6? Entry: `COc1ccccc1N1CCN(c2cc(-n3cccn3)nc(NCCC(=O)O)n2)CC1`
Not satisfied

Form field: pIC50 at least 6? Entry: `O=C(O)CCNc1nc(N2CCc3ccccc3C2)cc(-n2cc3ccccc3n2)n1`
Not satisfied
